Test system: TRPC4 (mouse), co-expressed with 5HT1a in HEK293
Method Description: calcium flux potentiators in TRPC4/5HT1a cells, confirmation, counter-screen for TRPC4 potentiator project, cell-based, second counter screen, HEK293 TRPC4/5HT1a, Fluo-4 (AID 434979)
Cond: Fluo-4 calcium flux, at 10 µM, serotonin added at its EC20 dose; hits give high values
The source made the active and inactive calls.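 The calls were made as follows: active = signal rise over 3 SD above mean of control wells given weak agonist, in both repeats and first screen; inactive = the rest.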
Experimental Readout: potentiation

{"columns": ["Compound", "Experimental Readout", "Measurement"],
 "data": [
  ["CCCCN(CC)CCNC(=O)c1cc2cc3ccc(Cl)cc3nc2o1", "potentiation", "40.5% (active)"],
  ["Fc1ccc(-c2nnc(CN3CCN(c4ncc(C(F)(F)F)cc4Cl)CC3)o2)cc1", "potentiation", "inactive"],
  ["CCOC(=O)C1(CCOc2ccccc2)CCN(Cc2ccc(NC(C)=O)cc2)CC1", "potentiation", "inactive"],
  ["COc1ccc(C(CNC(=O)c2cccc(S(=O)(=O)NCc3ccccc3)c2)N(C)C)cc1 (stereo not given)", "potentiation", "inactive"]
]}

Now let's try a different one.
Task item: Give potentiation (TRPC4 (mouse), co-expressed with 5HT1a in HEK293) of the following compound: CCn1c(N)[n+](CC(=O)Nc2ccc(SC(F)F)cc2)c2ccccc21
Reply: inactive
